Target: HLA-A*24:02
Assay: IEDB peptide-MHC binding, purified MHC/competitive/radioactivity; filed as Kd, often an IC50 or EC50 that approximates it; bounds were set here for any values at or beyond the usual limits of such assays
Details: source organism: Dengue virus 4 Dominica/814669/1981
Recorded endpoint: Kd
State the value, then name its unit.

Entry RFGTSLLFL — recorded Kd = 673 nM

====

Molecular target: HLA-A*24:03
Assay: IEDB peptide-MHC binding, purified MHC/direct/fluorescence; filed as Kd, often an IC50 or EC50 that approximates it; bounds were set here for any values at or beyond the usual limits of such assays
Conditions: source organism: Escherichia coli O157:H7
pKd: −log10 of the molar value.
Recorded endpoint: pKd

Entry ADLRFASEF — recorded pKd = ≤ 4.70

====

Target: HLA-A*02:19
Test: IEDB peptide-MHC binding, purified MHC/direct/fluorescence; filed as Kd, often an IC50 or EC50 that approximates it; bounds were set here for any values at or beyond the usual limits of such assays
Conditions: source organism: Orthohantavirus tulaense
pKd: −log10 of the molar value.
Recorded endpoint: pKd

Response field pKd (HLA-A*02:19) for item ILMARYMSK : ≤ 4.70

====

Target: HLA-B*08:02
Experiment: IEDB peptide-MHC binding, purified MHC/direct/fluorescence; filed as Kd, often an IC50 or EC50 that approximates it; bounds were set here for any values at or beyond the usual limits of such assays
Settings: source organism: Giardia lamblia ATCC 50803
pKd: −log10 of the molar value.
Recorded endpoint: pKd

Entry HCIDKTPGL — recorded pKd = ≤ 4.70

Entry QPWTPVSSF — recorded pKd = ≤ 4.70

====

Biological target: HLA-A*11:01
Test: IEDB peptide-MHC binding, purified MHC/direct/fluorescence; filed as Kd, often an IC50 or EC50 that approximates it; bounds were set here for any values at or beyond the usual limits of such assays
Conditions: source organism: Influenza A virus (A/swine/Hong Kong/5190/99(H3N2))
pKd: −log10 of the molar value.
Recorded endpoint: pKd

Entry GYMFESKSM — recorded pKd = ≤ 4.70

====

Record form. Attribute: Kd. Fill in for each entry.
Biological target: HLA-A*24:02
Assay: IEDB peptide-MHC binding, purified MHC/competitive/radioactivity; filed as Kd, often an IC50 or EC50 that approximates it; bounds were set here for any values at or beyond the usual limits of such assays
Conditions: source organism: Dengue virus 2 Jamaica/1409/1983
# value in nM; strip the unit string

Response field Kd (HLA-A*24:02) for item VFGAIYGAAF : 323

Response field Kd (HLA-A*24:02) for item TWAYHGSYET : 2160

====

Molecular target: HLA-B*08:01
Assay: IEDB peptide-MHC binding, purified MHC/direct/fluorescence; filed as Kd, often an IC50 or EC50 that approximates it; bounds were set here for any values at or beyond the usual limits of such assays
Details: source organism: Escherichia coli O157:H7
Recorded endpoint: Kd (µM)
# value in µM; strip the unit string

Response field Kd (HLA-B*08:01) for item ADLRFASEF : 3.84

====

Target: HLA-B*18:01
Test: IEDB peptide-MHC binding, purified MHC/direct/fluorescence; filed as Kd, often an IC50 or EC50 that approximates it; bounds were set here for any values at or beyond the usual limits of such assays
Settings: source organism: West Nile virus
pKd: −log10 of the molar value.
Recorded endpoint: pKd

Entry YCPGTTVTL — recorded pKd = ≤ 4.70

Entry WEALDTMYV — recorded pKd = 6.25

Entry KIRNRIERL — recorded pKd = ≤ 4.70

====

Molecular target: HLA-C*14:02
Test: IEDB peptide-MHC binding, purified MHC/direct/fluorescence; filed as Kd, often an IC50 or EC50 that approximates it; bounds were set here for any values at or beyond the usual limits of such assays
Settings: source organism: Mycobacterium tuberculosis H37Rv
Recorded endpoint: pKd
Value format note: pKd is -log10 of concentration (mol/L); just state the number.

Entry AMAAAAAPY — recorded pKd = 7.03

====

Target: HLA-A*68:02
Experiment: IEDB peptide-MHC binding, purified MHC/competitive/fluorescence; filed as Kd, often an IC50 or EC50 that approximates it; bounds were set here for any values at or beyond the usual limits of such assays
Conditions: source organism: Hepatovirus A
Recorded endpoint: Kd (nM)
# value in nM; strip the unit string

Entry YMYAVSGAL — recorded Kd = 2120

====

Biological target: HLA-B*46:01
Assay: IEDB peptide-MHC binding, purified MHC/competitive/fluorescence; filed as Kd, often an IC50 or EC50 that approximates it; bounds were set here for any values at or beyond the usual limits of such assays
Details: source organism: Hantavirus HPR/02-73
pKd: −log10 of the molar value.
Recorded endpoint: pKd

Response field pKd (HLA-B*46:01) for item GFAIPIILK : ≤ 4.70

====

Molecular target: HLA-A*02:01
Assay: IEDB peptide-MHC binding, purified MHC/direct/fluorescence; filed as Kd, often an IC50 or EC50 that approximates it; bounds were set here for any values at or beyond the usual limits of such assays
Conditions: source organism: Brucella suis 1330
Recorded endpoint: Kd

Entry DPPEPLVRI — recorded Kd = ≥ 20 µM

====

Molecular target: HLA-C*04:01
Test: IEDB peptide-MHC binding, purified MHC/competitive/fluorescence; filed as Kd, often an IC50 or EC50 that approximates it; bounds were set here for any values at or beyond the usual limits of such assays
Conditions: source organism: Homo sapiens
pKd: −log10 of the molar value.
Recorded endpoint: pKd

Entry YYWPRPRRY — recorded pKd = ≤ 5.30

====

Biological target: HLA-B*15:17
Assay: IEDB peptide-MHC binding, purified MHC/direct/fluorescence; filed as Kd, often an IC50 or EC50 that approximates it; bounds were set here for any values at or beyond the usual limits of such assays
Settings: source organism: Lake Victoria marburgvirus - Popp
pKd: −log10 of the molar value.
Recorded endpoint: pKd

Entry ITDITSPLW — recorded pKd = ≥ 9.00

====

Target: HLA-A*02:12
Assay: IEDB peptide-MHC binding, purified MHC/direct/fluorescence; filed as Kd, often an IC50 or EC50 that approximates it; bounds were set here for any values at or beyond the usual limits of such assays
Conditions: source organism: Giardia lamblia ATCC 50803
Recorded endpoint: Kd (nM)
# value in nM; strip the unit string

Response field Kd (HLA-A*02:12) for item HCIDKTPGL : 260

====

Target: HLA-B*45:06
Assay: IEDB peptide-MHC binding, purified MHC/competitive/fluorescence; filed as Kd, often an IC50 or EC50 that approximates it; bounds were set here for any values at or beyond the usual limits of such assays
Conditions: source organism: Burkholderia pseudomallei 668
Recorded endpoint: Kd

Entry ILFDRLPIA — recorded Kd = ≥ 5 µM

====

Record form. Attribute: Kd. Fill in for each entry.
Biological target: HLA-B*27:05
Assay: IEDB peptide-MHC binding, purified MHC/direct/fluorescence; filed as Kd, often an IC50 or EC50 that approximates it; bounds were set here for any values at or beyond the usual limits of such assays
Settings: source organism: Coxiella burnetii

Response field Kd (HLA-B*27:05) for item VFFKQWFEK : ≥ 20 µM

Response field Kd (HLA-B*27:05) for item YHFDPVHHL : ≥ 20 µM

Response field Kd (HLA-B*27:05) for item PEIRRWIIF : ≥ 20 µM

====

Target: HLA-B*18:01
Assay: IEDB peptide-MHC binding, purified MHC/competitive/fluorescence; filed as Kd, often an IC50 or EC50 that approximates it; bounds were set here for any values at or beyond the usual limits of such assays
Conditions: source organism: Orthohantavirus tulaense
Recorded endpoint: Kd

Entry ILMARYMSK — recorded Kd = ≥ 20 µM

====

Target: HLA-A*29:02
Assay: IEDB peptide-MHC binding, purified MHC/direct/fluorescence; filed as Kd, often an IC50 or EC50 that approximates it; bounds were set here for any values at or beyond the usual limits of such assays
Conditions: source organism: Escherichia coli O157:H7 str. EC869
pKd: −log10 of the molar value.
Recorded endpoint: pKd

Entry ETIGLVRAL — recorded pKd = ≤ 4.70

====

Molecular target: HLA-A*01:01
Experiment: IEDB peptide-MHC binding, purified MHC/competitive/radioactivity; filed as Kd, often an IC50 or EC50 that approximates it; bounds were set here for any values at or beyond the usual limits of such assays
Conditions: source organism: Dengue virus 3 Martinique/1243/1999
Recorded endpoint: pKd
Value format note: pKd is -log10 of concentration (mol/L); just state the number.

Entry YSIPATLLV — recorded pKd = 6.03

====

Record form. Attribute: Kd. Fill in for each entry.
Target: HLA-B*44:03
Assay: IEDB peptide-MHC binding, purified MHC/competitive/radioactivity; filed as Kd, often an IC50 or EC50 that approximates it; bounds were set here for any values at or beyond the usual limits of such assays
Settings: source organism: Dengue virus 2 Jamaica/1409/1983
# value in nM; strip the unit string

Entry NENDQYIYM — recorded Kd = 208

Entry QEHETSWHY — recorded Kd = 29.6

Entry LEHGSCVTTM — recorded Kd = 1080
